details: buffer; pH 7.4; 200.0 µM
Property Name: solubility kinetic

Kindly note the recorded solubility kinetic for Cc1ccc(S(=O)(=O)n2cc(C=O)c3ccccc32)cc1 , which is < 0.6 µg/mL

Per the record, O=C(CN1CCC(NC(=O)C2CC2)CC1)Nc1cccc(F)c1 has solubility kinetic of > 47.9 µg/mL

Lab book: solubility kinetic of CCOC(=O)C1Sc2ccccc2NC1=O (stereo not given) noted as > 35.6 µg/mL

Please fill in: solubility kinetic reported for CC1CCCCC1NC1CCN(C)CC1 (stereo not given) = > 31.6 µg/mL

Form: molecule = Cc1cccc(C)c1Nc1nnc(SCC(=O)NCCCN2CCCC2=O)s1 ; solubility kinetic = > 62.9 µg/mL

Noted for O=C(O)/C=C/C(=O)Nc1ccc(N2CCOCC2)nc1N1CCOCC1 : its solubility kinetic reads > 54.4 µg/mL

Reported solubility kinetic of O=C(NCc1ccncc1)C(=O)Nc1nccs1 : > 39.3 µg/mL

So, O=C(CN1CCOCC1)Nc1c(Cl)cc(Cl)cc1Cl ? Its solubility kinetic was > 48.5 µg/mL

Query CCCc1ncc(C(O)c2cccc(OC)c2)n1C (stereo not given) yields solubility kinetic of > 39.1 µg/mL

Looking up COc1ccc(C(=O)Nc2ccc(Nc3ccccc3)cc2)cc1[N+](=O)[O-] , I found its solubility kinetic recorded as < 0.3 µg/mL

According to the records, this molecule CCn1c(=O)c2sccc2n(Cc2cccc(C)c2)c1=O displays solubility kinetic of 9 µg/mL

The reported solubility kinetic of the molecule CC(C)CCNC(=O)CCCCn1c(=O)[nH]c2ccsc2c1=O was 47.1 µg/mL

The molecule listed as CC(C)N(Cc1ccccc1)C(=O)COC(=O)c1ccc(S(=O)(=O)N2CCOCC2)cc1 shows solubility kinetic equal to 3.1 µg/mL

solubility kinetic recorded for this molecule, Cc1sc2ncn(-c3ccccc3)c(=O)c2c1C , is 5.6 µg/mL

The measured solubility kinetic associated with CCN(CC)Cc1ccc(OC)c(Cl)c1.Cl reads > 39.6 µg/mL

###

Please respond with reported solubility kinetic for every item in the list.
conditions: buffer; pH 7.4; 200.0 µM

response.value for CN(C)C(=O)Oc1cccc([N+](C)(C)C)c1.[Br-] (field: solubility kinetic) = > 45.5 µg/mL

Record summary for Cc1c(Cl)cccc1NC(=O)CCN1CCOCC1 : reported solubility kinetic = > 42.4 µg/mL

Kindly note the recorded solubility kinetic for Cc1nc(N2CCCCCC2)c2ccccc2n1.Cl , which is > 41.7 µg/mL

###

details: buffer; pH 7.4; 200.0 µM
Property Name: solubility kinetic

The molecule COc1ccccc1CN(C)C(=O)c1ccc(S(=O)(=O)Nc2c(C)n(C)n(-c3ccccc3)c2=O)cc1 showed solubility kinetic equal to > 78.1 µg/mL

Notebook: O=C(Nc1ccccc1)C1CCCN(C(=O)c2ccc(F)cc2)C1 (configuration not stated) , solubility kinetic read as > 49 µg/mL

Cl.OC(CNC1CCCC1)COc1ccc(Cl)cc1 (configuration not stated) has a reported solubility kinetic of > 45.9 µg/mL

For Cn1nc(C(F)(F)F)c(-c2ccccc2)c1NC(=O)CSCC(=O)O the molecule record lists solubility kinetic as > 56 µg/mL

Noted for Cc1ccc(-c2nc(C#N)c(N3CCC(C)CC3)o2)cc1 : its solubility kinetic reads < 0.2 µg/mL

Input Cc1ccc(NC(=O)Nc2ccc3c(c2)CCC3)cc1 . Output solubility kinetic: < 0.3 µg/mL

solubility kinetic reading for CC(NC(=O)c1c(O)c2ccccc2n(C)c1=O)c1ccccc1 (configuration not stated) : < 0.3 µg/mL

solubility kinetic reading for CC(=O)Nc1c(NC(C)(C)C)c2ccccc2oc1=O : > 41.1 µg/mL

Item: Cc1ccc(CNS(=O)(=O)c2ccc(C)s2)cc1 | solubility kinetic: > 42.2 µg/mL

Measured solubility kinetic of CC(C)[C@H](NC(=O)c1ccccc1F)C(=O)OCCN1C(=O)c2ccccc2C1=O : > 61.9 µg/mL

For reference, reported solubility kinetic for O=C(c1ccccc1)N1CCN(S(=O)(=O)c2cccs2)CC1 stands at > 50.5 µg/mL

Noted for NC(=O)c1ccsc1NC(=O)COC(=O)c1cnccn1 : its solubility kinetic reads > 45.9 µg/mL

###

conditions: buffer; pH 7.4; 200.0 µM
Property Name: solubility kinetic

solubility kinetic reading for CC(=O)OC(C(=O)NC1CCCCC1)c1cccc(F)c1 (stereo unspecified) : > 44 µg/mL

Reported solubility kinetic for CC(C)(ONC(=O)Nc1ccccc1Cl)C(=O)O was > 40.9 µg/mL

Notebook: CCCNC(=O)CSc1nccn1Cc1ccc(OC)cc1 , solubility kinetic read as > 47.9 µg/mL

# solubility kinetic of CN(CC(=O)NCc1ccncc1)S(=O)(=O)c1ccc(Cl)cc1 = > 53.1 µg/mL

Recorded result, CCCCNc1ccc(C(=O)OCCN(C)C)cc1.Cl , solubility kinetic: > 45.1 µg/mL

Sample COc1cccc(CC2(CO)CCN(S(=O)(=O)N(C)C)CC2)c1 ; solubility kinetic observed: > 51.4 µg/mL

Given item Cc1cccc(NC(=O)C(C)n2cc([N+](=O)[O-])cn2)n1 (stereo unspecified) , the value recorded as its solubility kinetic is > 41.3 µg/mL

Data point: CC(C)C1N(C(N)=S)N=CC1(C)C (stereo unspecified) ; solubility kinetic = > 29.9 µg/mL

Record CCOc1ccc(NC2=NCCCS2)cc1 . Reported solubility kinetic: > 35.4 µg/mL

Lookup result for CNC(=O)CSc1nnc(-c2ccc3c(c2)OCO3)n1C ; measured solubility kinetic: > 46 µg/mL

So for NC(=O)c1cc[n+](Cc2ccc([N+](=O)[O-])cc2)cc1.[Br-] , the logged solubility kinetic turned out to be > 50.7 µg/mL

###

Provide the recorded solubility kinetic for the entries that follow.
settings: buffer; pH 7.4; 200.0 µM

The compound listed as COc1ccc(-c2cc(C(=O)Nc3ccccc3F)on2)cc1 has a reported solubility kinetic of < 0.3 µg/mL

# solubility kinetic of CC1CCCCN1C(=S)NC(=O)c1cccs1 (stereo not given) = > 40.3 µg/mL

// solubility kinetic lookup, compound = O=c1c2ccccc2nc2n1C(CBr)CS2 (stereo not given) , result: > 44.6 µg/mL

Query CNS(=O)(=O)c1cc(Cl)ccc1Sc1ccccc1C(=O)O yields solubility kinetic of > 53.7 µg/mL

In plain terms, O=C(NCC(c1ccco1)N1CCCC1)c1cc(=O)[nH]c2ccccc12 (stereo not given) has a documented solubility kinetic of > 52.7 µg/mL

###

Please go through the items and note down their solubility kinetic.
settings: buffer; pH 7.4; 200.0 µM

The compound listed as CNc1snc(C)c1C(=O)OC(C)C(=O)Nc1ccc(F)cc1 (centres undefined) shows solubility kinetic equal to > 50.6 µg/mL

Briefly, solubility kinetic measured for O=C(O)/C=C/C(=O)NC1CC1 : > 23.3 µg/mL

The compound listed as COc1ccccc1CNC(=O)CS(=O)(=O)c1ccc(C)cc1 shows solubility kinetic equal to > 50 µg/mL

What the record says about COc1ccc2c(c1O)C13CCN(C)C(C2)C1CCC(=O)C3 (centres undefined) : solubility kinetic is > 45.2 µg/mL

Form field solubility kinetic, entry CNC(=O)COC(=O)/C=C/c1cccc(F)c1 : > 35.6 µg/mL

Lab note: Cc1ccc(C(=O)Nc2ccc3c(c2)OCO3)cc1Cl gave solubility kinetic of < 0.6 µg/mL

Query CC1(C)Cc2nc3sc4c(NCCO)ncnc4c3cc2CS1 yields solubility kinetic of > 52 µg/mL

Form: compound = COc1ccc(N2CCN(CC(=O)NCc3ccccc3)CC2)cc1 ; solubility kinetic = > 50.9 µg/mL

Measured solubility kinetic, N#CC(C#N)=C1C(=O)N(CCN2CCOCC2)c2ccccc21 : > 46.3 µg/mL

###

details: buffer; pH 7.4; 200.0 µM
Hi there, I'd appreciate the recorded solubility kinetic for every entry that follows.

Reported solubility kinetic for CC1Cc2cc(/C=C3/SC(=S)N(C)C3=O)ccc2O1 (stereo unspecified) was < 0.6 µg/mL

Briefly, solubility kinetic measured for O=C(CCCN1C(=O)c2ccccc2C1=O)Nc1ccccc1 : > 46.3 µg/mL

Documented solubility kinetic of CC(=O)NC(CC(=O)O)c1ccc([N+](=O)[O-])cc1 (stereo unspecified) : > 37.8 µg/mL

Memo: CC(C)Oc1cccc(C(=O)C2CCCN(S(C)(=O)=O)C2)c1 (stereo unspecified) , reported solubility kinetic: > 48.8 µg/mL

Reported solubility kinetic of O=C1c2ccccc2C(=O)N1CCCn1ccnc1 : > 38.3 µg/mL

Just so you know, measured solubility kinetic for O=C(O)c1ccc(N2CCc3ccccc32)c([N+](=O)[O-])c1 came out at > 42.6 µg/mL

###

conditions: buffer; pH 7.4; 200.0 µM
For each of the molecules below, state its solubility kinetic.

So for Cc1ccc(OCC(=O)N2CCCCCCC2)cc1 , the logged solubility kinetic turned out to be > 39.2 µg/mL

Measured solubility kinetic of CN(C(=O)c1ccc2c(c1)OCO2)C1CCS(=O)(=O)C1 (stereo not drawn) : > 44.6 µg/mL

The molecule identified as NC(=O)c1ccsc1NC(=O)CN1C(=O)NC2(CCCC2)C1=O registered its solubility kinetic at > 50.5 µg/mL

Origin of values: PubChem BioAssay AID1996
